The origin of these recorded values is ChEMBL document CHEMBL3988442.

- System: Wolbachia pipientis
- ASSAY DETAILS: Anti-Wolbachia Cell-Based Screen
- Assay type: functional
- Set-up: scale not given: in the data most compounds retested in dose-response had high values
- CONDITION DESCRIPTION: 5 µM
Screen size: about 48,000 compounds; about 13,000 (27%) showed an effect of 50% or more. The list shows a part of the results.
Listed below: Percent Effect values for each entry.
API: value field is a number in %; no unit string.

Here are 2 compounds together with their reported answers.
# COMPOUND, Percent Effect / %
measured = [
    ("COc1cccc2c1OCC(C(=O)N1CCC(NS(C)(=O)=O)CC1)C2 (centres undefined)", 16.61),
    ("Cc1cc(-c2nnn(CCC(N)=O)n2)ccc1F", -8.55),
]

q: Quick check: Percent Effect on Wolbachia pipientis, item COc1ccc(-n2ccc(C(=O)NCCN3CCCC(C)C3)n2)cc1 (centres undefined) ?
a: 109.8

q: What reported Percent Effect corresponds to Cc1cccc(CN2CCC3(CC2)NC(=O)CC3c2ccccc2)n1.O=C(O)C(F)(F)F (centres undefined) on Wolbachia pipientis?
a: 109.2

q: # value lookup — system Wolbachia pipientis, readout Percent Effect, item Cc1cc(N(C)C)nc(N2CCN(C(C)c3nc(C)no3)CC2)n1 (centres undefined)
a: 5.095

* * *

- Tested on: Wolbachia pipientis
- ASSAY DETAILS: Anti-Wolbachia Cell-Based Screen
- Type: functional
- Parameters: scale not given: in the data most compounds retested in dose-response had high values
- CONDITION DESCRIPTION: 5 µM
Hit rate of the full screen: of about 48,000 compounds, about 13,000 (27%) showed an effect of 50% or more. Some of the results follow.
Percent Effect by entry:
Lab book: enter the figure in %, no units written.

Recorded Percent Effect, per entry:
# COMPOUND, MEASURED TARGET, U, OBSERVED
data = [
    ("Cc1cccc(CNc2nnc(C(C)C)o2)c1", "Wolbachia pipientis", "%", -24.34),
    ("CN1CCC(NC(=O)[C@H]2CC[C@@H]3[C@@H](CCN3c3ncccn3)O2)CC1.O=C(O)C(F)(F)F.O=C(O)C(F)(F)F", "Wolbachia pipientis", "%", 7.6),
    ("CSc1ccc(CNC2(c3ccc(F)cc3)CCOCC2)cc1", "Wolbachia pipientis", "%", -10.48),
    ("Cc1ccc(CNc2n[nH]c(C)n2)cc1", "Wolbachia pipientis", "%", 101.1),
    ("CS(=O)(=O)N1CC[C@H]2O[C@H](C(=O)NCc3cccnc3)CC[C@H]21", "Wolbachia pipientis", "%", -7.533),
    ("CSc1ccc(CNc2n[nH]c(C)n2)cc1", "Wolbachia pipientis", "%", 110),
    ("CNC(=O)[C@@H]1CC[C@@H]2[C@@H](CCN2C(=O)N(C)C)O1", "Wolbachia pipientis", "%", -10.15),
    ("Cc1cc(NS(=O)(=O)c2ccc(C(=O)O)cc2F)ccc1F", "Wolbachia pipientis", "%", 102.3),
]

Here is another compound to look at.
q: Which Percent Effect reading was recorded for the compound CCc1cnc(N)nc1NCCCn1nc(C)nc1C ?
a: 4.841

* * *

Recorded measurements of Percent Effect, one per entry
- System: Wolbachia pipientis
- ASSAY DETAILS: Anti-Wolbachia Cell-Based Screen
- Assay type: functional
- Design: scale not given: in the data most compounds retested in dose-response had high values
- CONDITION DESCRIPTION: 5 µM
About 13,000 (27%) of roughly 48,000 compounds showed an effect of 50% or more. This is one part of the list.
Provide the reading as a plain figure in %.

Answered cases to consult:
# COMPOUND, MEASURED TARGET, U, Percent Effect
records = [
    ("CO[C@@H]1CN(c2ccccc2)S(=O)(=O)[C@@]12CCN(S(C)(=O)=O)C2", "Wolbachia pipientis", "%", 80.67),
    ("CO[C@@H]1CN(c2ccccc2)S(=O)(=O)[C@@]12CCN(C)C2", "Wolbachia pipientis", "%", 121.6),
    ("CCc1nc(C2CCCN2CC(=O)Nc2c(C)n[nH]c2C)no1 (stereo unspecified)", "Wolbachia pipientis", "%", 6.679),
    ("Cc1n[nH]c(C)c1NC(=O)CN1CCCC1c1noc(C(C)C)n1 (stereo unspecified)", "Wolbachia pipientis", "%", 106.9),
    ("CNC(=O)CN1C(=O)CCC12CCCN(Cc1cccc(F)c1)C2.O=C(O)C(F)(F)F.O=C(O)C(F)(F)F (stereo unspecified)", "Wolbachia pipientis", "%", 0.4911),
    ("Cc1cc(NC(=O)CN2CCCC2c2noc(C(C)C)n2)n(C)n1 (stereo unspecified)", "Wolbachia pipientis", "%", -5.63),
    ("CCNC(=O)N1CCC(OC)c2ccccc2N(CC(=O)NC)C(=O)C1 (stereo unspecified)", "Wolbachia pipientis", "%", 67.66),
    ("CCn1ncnc1C(C)NC(=O)C1CCN(C(=O)COC)CC1 (stereo unspecified)", "Wolbachia pipientis", "%", 0.6867),
]

q: Entry CC(Oc1ccc(F)cc1F)C(=O)N1CCC2(CC1)CC(=O)N(C)C2 (stereo unspecified) has what Percent Effect?
a: -15.1

q: Which measured Percent Effect value corresponds to O=C(O)C(F)(F)F.O=C(O)C(F)(F)F.O=C(c1ccc(F)cc1)N1CCN2C[C@H](Oc3cccnc3)C[C@H]2C1 ?
a: -2.866

q: May I ask what Percent Effect has been recorded for CCS(=O)(=O)N1CCCC2(CCCN2Cc2cccc(F)c2)C1.O=C(O)C(F)(F)F (stereo unspecified) ?
a: -5.383

q: Fill in the blank: the reported Percent Effect of CCOC(=O)N1CCC(OC)c2ccccc2N(CC(=O)NC)C(=O)C1 (stereo unspecified) is ____.
a: 117.4

q: For CCNC(=O)N1CC[C@H]2CC(=O)N(CC(N)=O)CC[C@H]2C1 , what is its reported Percent Effect?
a: 1.469

q: // returns reported Percent Effect for input CCOC(=O)[C@]12CCCN(Cc3cccs3)C[C@H]1CN(CC(C)C)C2.O=C(O)C(F)(F)F.O=C(O)C(F)(F)F
a: 98.32

q: Looking for the measured Percent Effect of O=C(O)C(F)(F)F.O=C(c1cscn1)N1CCC2(CCN(Cc3nccs3)CC2)C1 , can you help?
a: 11.65

q: # query: Percent Effect of entry CS(=O)(=O)N1CCC2(CC1)c1ccccc1[C@@H](N1CCSCC1)[C@@H]2O
a: -3.022

q: What value of Percent Effect has been reported for the following compound? CCn1cc(C(=O)N2CCCC3(CCC(=O)N(CCC(C)C)C3)C2)cn1 (stereo unspecified)
a: 12.9

q: I am curious: what Percent Effect value has been reported for Cc1nc(C2CCCN2CC(=O)Nc2c(C)nn(C)c2C)no1 (stereo unspecified) ?
a: -17.15

q: Consider the compound Cc1nc(C2CCCN2CC(=O)Nc2c(C)n[nH]c2C)no1 (stereo unspecified) and give its measured Percent Effect.
a: 89.73

q: I'd like to know its Percent Effect. The compound in question is COC(=O)CCC(=O)N1CCCC2(CCCN2Cc2cccc(F)c2)C1.O=C(O)C(F)(F)F (stereo unspecified)
a: 107.2

q: Quick one: Percent Effect of Cc1n[nH]c(C)c1NC(=O)CN1CCCC1c1noc(C2CC2)n1 (stereo unspecified) ?
a: 90.47

q: Endpoint output: Percent Effect of CCOC(=O)[C@]12CCCN(Cc3nccs3)C[C@H]1CN(CC(C)C)C2.O=C(O)C(F)(F)F.O=C(O)C(F)(F)F . Value?
a: 11.11

q: I have this compound here, CCC(=O)N1C[C@@H](C(=O)NC)[C@H](c2ccnc(N3CCCC3)n2)C1.Cl , and I need its recorded Percent Effect.
a: 103.8

q: # get_value(readout='Percent Effect', item= CN1CC(=O)N(c2ccccc2)CC12CCN(S(C)(=O)=O)C2.O=C(O)C(F)(F)F (stereo unspecified) )
a: 10.77

q: Entry CCCN1CC2(CCN(C)CC2)CC1C(=O)NCCn1cc(C)cn1 (stereo unspecified) : reported Percent Effect = ?
a: 2.434

q: Recorded Percent Effect for Cc1nn(C)c(C)c1NC(=O)CN1CCCC1c1noc(C(C)C)n1 (stereo unspecified) , please?
a: -6.278

q: Look up Percent Effect: O=C(O)C(F)(F)F.O=C(c1ccccc1)N1CCCC2(CCN2Cc2cccc(F)c2)C1 (stereo unspecified)
a: 106.4

q: Need Percent Effect, item c1ccc(CCn2cc(-c3nc(CN4CCOCC4)no3)nn2)cc1
a: 7.795

q: # lookup: Percent Effect of O=C(O)C(F)(F)F.O=C(O)C(F)(F)F.O=C(O)CN1CCCC2(CCN2Cc2cccc(F)c2)C1 (stereo unspecified)
a: 109.4

q: Item COC1CCN(S(=O)(=O)N2CC(c3ccccc3)C(C)(C)C2)CC1 (stereo unspecified) has what recorded Percent Effect?
a: 17.09

q: Fill in: Percent Effect of Cc1nn(C)c(C)c1NC(=O)CN1CCCC1c1noc(C2CC2)n1 (stereo unspecified) is ___
a: -4.679

q: Quick one: Percent Effect for CNC(=O)[C@@H]1CN(C(=O)COC)C[C@H]1c1ccnc(N2CCCC2)n1 ?
a: 103.6

q: Find the recorded Percent Effect belonging to CNC(=O)CN1C(=O)CN(C(=O)COC)CCC(OC)c2ccccc21 (stereo unspecified) and report it.
a: 121.9
